Quick list: Ki per entry.
Assay system: Cholesterol esterase (CEase)
Experimental protocol: Inhibition of CEase-catalyzed hydrolysis of p-nitrophenylbutyrate (PNPB)
Applied conditions: 25.0±0.1 C, pH 7.3, 0.1 M sodium phosphate, 1 mM Triton X100, substrate PNPB; read-out: Ki (inhibition constants for difluoroketone inhibitors of cholesterol esterase)
Field format: number, assumed nM, no unit text.

Sample records with Ki:
Endpoint output: Ki of `COc1ccc2cc(C(=O)C(F)(F)Cl)ccc2c1` . Value?
6000

Looking for the measured Ki of `CCCCC(F)(F)C(=O)c1ccc2cc(OC)ccc2c1` , can you help?
380

Suppose we examine the molecule `CCCCCC(F)(F)C(=O)c1ccc2ccccc2c1` ; what Ki value has been reported?
80

Recorded Ki of `O=C(c1ccc2ccccc2c1)C(F)(F)Cl` , please.
2000

Consider the molecule shown here: `CCCCC(F)(F)C(=O)c1ccc2ccccc2c1` What is its recorded Ki?
270

Continue with the next molecule.
Report Ki for `O=C(c1ccc2ccccc2c1)C(F)(F)I` please.
800

The reported numbers originate from patent US5093371A.
